# reported IC50; entries follow
molecular target: human neutrophil elastase (Homo sapiens); test: Inhibition of human neutrophil elastase (hydrolysis of MeOSuc-AAPV-pNA); settings: substrate MeOSuc-AAPV-pNA 0.3 mM, enzyme 10 nM, 37° C., pH 8; read-out: Human neutrophil elastase (hNE) IC50
Sequence (P08246 30-267): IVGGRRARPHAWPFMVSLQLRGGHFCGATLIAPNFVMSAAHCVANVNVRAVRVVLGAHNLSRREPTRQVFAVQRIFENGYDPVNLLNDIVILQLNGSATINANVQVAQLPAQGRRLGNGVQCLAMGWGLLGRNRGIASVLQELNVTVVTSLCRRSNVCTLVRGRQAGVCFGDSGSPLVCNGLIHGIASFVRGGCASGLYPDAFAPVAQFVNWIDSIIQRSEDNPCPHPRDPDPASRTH
Where a SMILES comes first, the peptide text is derived from it. [ ]: non-standard residue; d: D form. Oic = O=C(O)[C@@H]1C[C@@H]2CCCC[C@@H]2N1; Gly(octyl) = CCCCCCCC[C@H](N)C(=O)O; Aad = N[C@@H](CCCC(=O)O)C(=O)O; β3hP = O=C(O)C[C@@H]1CCCN1; Dap = NC[C@H](N)C(=O)O

- molecule: "CCCCCCCC[C@@H]1NC(=O)[C@@H]2CCCN2C(=O)[C@H]2CCCN2C(=O)[C@H](CN)NC(=O)[C@H](CCCCN)NC(=O)[C@H](CCC(N)=O)NC(=O)[C@@H]2CCCN2C(=O)[C@@H]2CCCN2C(=O)[C@H]([C@@H](C)CC)NC(=O)[C@H](CO)NC(=O)[C@H](C)NC(=O)[C@H]([C@@H](C)O)NC(=O)[C@H](CCC(=O)O)NC1=O [Example 2] (cyclo([Gly(octyl)]ETASIPPQK[Dap][dP]P))"
  unitsLabel: "µM"
  IC50: 0.0055
- molecule: "CCCCCCCC[C@@H]1NC(=O)[C@H](Cc2ccc(O)cc2)NC(=O)[C@@H](Cc2ccc(O)cc2)NC(=O)[C@H]([C@@H](C)O)NC(=O)[C@H](CCCCN)NC(=O)[C@H](CCC(N)=O)NC(=O)[C@@H]2CCCN2C(=O)[C@@H]2CCCN2C(=O)[C@H]([C@@H](C)CC)NC(=O)[C@H](CO)NC(=O)[C@H](C)NC(=O)[C@H]([C@@H](C)O)NC(=O)[C@H](CCC(=O)O)NC1=O [Example 24] (cyclo([Gly(octyl)]ETASIPPQKT[dY]Y))"
  unitsLabel: "µM"
  IC50: 0.0116
- molecule: "CCCCCCCC[C@@H]1NC(=O)[C@H](Cc2ccc(O)cc2)NC(=O)[C@@H](C(C)C)NC(=O)[C@H]([C@@H](C)O)NC(=O)[C@H](CCCCN)NC(=O)[C@H](CCC(N)=O)NC(=O)[C@@H]2CCCN2C(=O)[C@@H]2CCCN2C(=O)[C@H]([C@@H](C)CC)NC(=O)[C@H](CO)NC(=O)[C@H](C)NC(=O)[C@H]([C@@H](C)O)NC(=O)[C@H](CCC(=O)O)NC1=O [Example 21] (cyclo([Gly(octyl)]ETASIPPQKT[dV]Y))"
  unitsLabel: "µM"
  IC50: 0.0129
- molecule: "CCCCCCCC[C@@H]1NC(=O)[C@H](C)NC(=O)[C@@H](C)NC(=O)[C@H]([C@@H](C)O)NC(=O)[C@H](CCCCN)NC(=O)[C@H](CCC(N)=O)NC(=O)[C@@H]2CCCN2C(=O)[C@@H]2CCCN2C(=O)[C@H]([C@@H](C)CC)NC(=O)[C@H](CO)NC(=O)[C@H](C)NC(=O)[C@H]([C@@H](C)O)NC(=O)[C@H](CCC(=O)O)NC1=O [Example 20] (cyclo([Gly(octyl)]ETASIPPQKT[dA]A))"
  unitsLabel: "µM"
  IC50: 0.0133
- molecule: "CCCCCCCC[C@@H]1NC(=O)[C@H](CCCCN)NC(=O)[C@@H](CCCCN)NC(=O)[C@H]([C@@H](C)O)NC(=O)[C@H](CCCCN)NC(=O)[C@H](CCC(N)=O)NC(=O)[C@@H]2CCCN2C(=O)[C@@H]2CCCN2C(=O)[C@H]([C@@H](C)CC)NC(=O)[C@H](CO)NC(=O)[C@H](C)NC(=O)[C@H]([C@@H](C)O)NC(=O)[C@H](CCC(=O)O)NC1=O [Example 28] (cyclo([Gly(octyl)]ETASIPPQKT[dK]K))"
  unitsLabel: "µM"
  IC50: 0.012
- molecule: "CCCCCCCC[C@@H]1NC(=O)[C@@H]2C[C@@H]3CCCC[C@@H]3N2C(=O)[C@H]2CCCN2C(=O)[C@H]([C@@H](C)O)NC(=O)[C@H](CCCCN)NC(=O)[C@H](CCC(N)=O)NC(=O)[C@@H]2CCCN2C(=O)[C@@H]2CCCN2C(=O)[C@H]([C@@H](C)CC)NC(=O)[C@H](CO)NC(=O)[C@H](C)NC(=O)[C@H]([C@@H](C)O)NC(=O)[C@H](CCC(=O)O)NC1=O [Example 6] (cyclo([Gly(octyl)]ETASIPPQKT[dP][Oic]))"
  unitsLabel: "µM"
  IC50: 0.012
- molecule: "CCCCCCCC[C@@H]1NC(=O)[C@H]2CCCN2C(=O)[C@H]2CCCN2C(=O)[C@H]([C@@H](C)O)NC(=O)[C@H](CCCCN)NC(=O)[C@H](CCC(N)=O)NC(=O)[C@@H]2CCCN2C(=O)[C@@H]2CCCN2C(=O)[C@H]([C@@H](C)CC)NC(=O)[C@H](CO)NC(=O)[C@H](C)NC(=O)[C@H]([C@@H](C)O)NC(=O)[C@H](CCC(=O)O)NC1=O [Example 12] (cyclo([Gly(octyl)]ETASIPPQKT[dP][dP]))"
  unitsLabel: "µM"
  IC50: 0.0152
- molecule: "CCCCCCCC[C@@H]1NC(=O)C[C@@H]2CCCN2C(=O)[C@H]2CCCN2C(=O)[C@H]([C@@H](C)O)NC(=O)[C@H](CCCCN)NC(=O)[C@H](CCC(N)=O)NC(=O)[C@@H]2CCCN2C(=O)[C@@H]2CCCN2C(=O)[C@H]([C@@H](C)CC)NC(=O)[C@H](CO)NC(=O)[C@H](C)NC(=O)[C@H]([C@@H](C)O)NC(=O)[C@H](CCC(=O)O)NC1=O [Example 39] (cyclo([Gly(octyl)]ETASIPPQKT[dP][β3hP]))"
  unitsLabel: "µM"
  IC50: 0.0029
- molecule: "CCCCCCCC[C@@H]1NC(=O)[C@@H]2CCCN2C(=O)[C@H]2CCCN2C(=O)[C@H](CCCC(N)=O)NC(=O)[C@H](CCCCN)NC(=O)[C@H](CCC(N)=O)NC(=O)[C@@H]2CCCN2C(=O)[C@@H]2CCCN2C(=O)[C@H]([C@@H](C)CC)NC(=O)[C@H](CO)NC(=O)[C@H](C)NC(=O)[C@H]([C@@H](C)O)NC(=O)[C@H](CCC(=O)O)NC1=O [Example 5] (cyclo([Gly(octyl)]ETASIPPQK[Aad](NH2)[dP]P))"
  unitsLabel: "µM"
  IC50: 0.0099
- molecule: "CC[C@H](C)[C@@H]1NC(=O)[C@H](CO)NC(=O)[C@H](C)NC(=O)[C@H]([C@@H](C)O)NC(=O)[C@H](CCC(=O)O)NC(=O)[C@H](CCC(=O)N[C@@H](Cc2ccccc2)C(=O)O)NC(=O)[C@@H]2CCCN2C(=O)[C@H]2CCCN2C(=O)[C@H](Cc2ccc(O)cc2)NC(=O)[C@H](CCCCN)NC(=O)[C@H](CCC(N)=O)NC(=O)[C@@H]2CCCN2C(=O)[C@@H]2CCCN2C1=O [Example 18] (cyclo(E(Phe)ETASIPPQKY[dP]P))"
  unitsLabel: "µM"
  IC50: 0.0159

* * *

Where a SMILES comes first, the peptide text is derived from it. [ ]: non-standard residue; d: D form. Oic = O=C(O)[C@@H]1C[C@@H]2CCCC[C@@H]2N1; Gly(octyl) = CCCCCCCC[C@H](N)C(=O)O; β3hP = O=C(O)C[C@@H]1CCCN1; hSer = N[C@@H](CCO)C(=O)O
# IC50 measurements, system: UniProt P00772
# Sequence (P00772 27-266): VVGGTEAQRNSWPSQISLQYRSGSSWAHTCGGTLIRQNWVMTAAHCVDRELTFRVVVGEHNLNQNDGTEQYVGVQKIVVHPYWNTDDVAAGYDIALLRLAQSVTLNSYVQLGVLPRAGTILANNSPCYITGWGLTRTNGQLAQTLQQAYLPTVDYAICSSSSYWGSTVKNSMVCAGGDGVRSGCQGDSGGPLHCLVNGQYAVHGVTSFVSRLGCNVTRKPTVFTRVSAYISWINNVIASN
readout: IC50 (µM)

- compound: "CCCCCCCC[C@@H]1NC(=O)[C@@H]2CCCN2C(=O)[C@H]2CCCN2C(=O)[C@H](CCOC)NC(=O)[C@H](CCCCN)NC(=O)[C@H](CCC(N)=O)NC(=O)[C@@H]2CCCN2C(=O)[C@@H]2CCCN2C(=O)[C@H]([C@@H](C)CC)NC(=O)[C@H](CO)NC(=O)[C@H](C)NC(=O)[C@H]([C@@H](C)O)NC(=O)[C@H](CCC(=O)O)NC1=O [Example 1] (cyclo([Gly(octyl)]ETASIPPQK[hSer](Me)[dP]P))"
  readout: "IC50"
  testValue: 0.62
- compound: "CCCCCCCC[C@@H]1NC(=O)[C@@H]2CCCN2C(=O)[C@H]2CCCN2C(=O)[C@H]([C@@H](C)O)NC(=O)[C@H](CCCCN)NC(=O)[C@H](CCC(N)=O)NC(=O)[C@@H]2C[C@@H]3CCCC[C@@H]3N2C(=O)[C@@H]2CCCN2C(=O)[C@H]([C@@H](C)CC)NC(=O)[C@H](CO)NC(=O)[C@H](C)NC(=O)[C@H]([C@@H](C)O)NC(=O)[C@H](CCC(=O)O)NC1=O [Example 10] (cyclo([Gly(octyl)]ETASIP[Oic]QKT[dP]P))"
  readout: "IC50"
  testValue: 36.2
- compound: "CCCCCCCC[C@@H]1NC(=O)C[C@@H]2CCCN2C(=O)[C@H]2CCCN2C(=O)[C@H]([C@@H](C)O)NC(=O)[C@H](CCCCN)NC(=O)[C@H](CCC(N)=O)NC(=O)[C@@H]2CCCN2C(=O)[C@@H]2CCCN2C(=O)[C@H]([C@@H](C)CC)NC(=O)[C@H](CO)NC(=O)[C@H](C)NC(=O)[C@H]([C@@H](C)O)NC(=O)[C@H](CCC(=O)O)NC1=O [Example 39] (cyclo([Gly(octyl)]ETASIPPQKT[dP][β3hP]))"
  readout: "IC50"
  testValue: 87.9
